Test system: Panc-1 cells
Assay: Growth inhibition assay, Panc-1 cells
Assay type: cell-based, human
Details: Panc-1 cells
propertyLabel: pIC50
// pIC50 here means minus log10 of the molar concentration (mol/L)

Incoming: Query: pIC50; subject: CCCCc1c2c(nc3ccc(N)cc13)-c1cc3c(c(=O)n1C2)COC(=O)C3(O)CC (stereo not shown)
Outgoing: 8.40

----------
Attribute: IC90
System: Panc-1 cells
Assay: Growth inhibition assay, Panc-1 cells
Type: cell-based, human
Settings: Homo sapiens, PANC-1

Some solved entries appear below for comparison.
{"molecule": "Cc1nc(Nc2ncc(C(=O)Nc3c(C)cccc3Cl)s2)cc(N2CCN(CCO)CC2)n1", "recordedResult": "13.2 µM"}
{"molecule": "COc1cc([C@@H]2c3cc4c(cc3[C@@H](O[C@@H]3O[C@@H]5CO[C@@H](C)O[C@H]5[C@H](O)[C@H]3O)[C@H]3COC(=O)[C@H]23)OCO4)cc(OC)c1O [Etoposide]", "recordedResult": "8.75 µM"}
{"molecule": "O=c1[nH]cc(F)c(=O)[nH]1", "recordedResult": "97.6 µM"}

Turning to the following molecule.
Incoming: Query: IC90; subject: Nc1ccn([C@@H]2O[C@H](CO)[C@@H](O)C2(F)F)c(=O)n1
Outgoing: 0.117 µM
